# Tested on: GRID2IP-1
# assay-remarks: Holdup assay, GRID2IP-1
# Type: binding, human
*1 amine or outer side, *2 acyl side, *3 side chain or, on linkers, in order; H or OH if unused. Where a SMILES comes first, the peptide text is derived from it. The star is where a group is joined. X1 = O=C(CCCC[C@@H]1SC[C@@H]2NC(=O)N[C@@H]21)NCCCOCCOCCOCCCN*; Suc = O=C(CCC(=O)[*:2])[*:1]

molecule	BI
CC[C@H](C)[C@H](NC(=O)[C@H](CCC(N)=O)NC(=O)[C@@H](NC(=O)[C@H](Cc1c[nH]cn1)NC(=O)[C@H](CCC(N)=O)NC(=O)[C@H](CC(=O)O)NC(=O)[C@H](CCC(=O)O)NC(=O)[C@H](CC(=O)O)NC(=O)[C@H](Cc1ccccc1)NC(=O)[C@@H]1CCCN1C(=O)CCC(=O)NCCCOCCOCCOCCCNC(=O)CCCC[C@@H]1SC[C@@H]2NC(=O)N[C@@H]21)[C@@H](C)O)C(=O)N[C@H](C(=O)N[C@@H](CCCCN)C(=O)N[C@H](C(=O)O)C(C)C)[C@@H](C)O [PTEN_13] ({X1-Suc}-PFDEDQHTQITKV-OH)	0.044

* * *

# Test system: 266 human PDZ domains (PDZome)
# assay-remarks: Holdup assay (chromatographic retention, PDZome-binding profile, BI)
# Design: key: binding intensity: 0.00 = no binding, 1.00 = maximal binding
# experimental-setup: PDZ domain SNTB1-1
# From the text: The holdup method is a chromatographic approach in solution developed in our group that allows to measure the binding strength of a peptide, attached to a resin, against a library of domains of a same family. […] The flow-throughs containing the unbound protein fraction are recovered by filtration and loaded on a capillary electrophoresis instrument to quantify the amount of remaining free PDZ. […] The assay is particularly suited to quantitatively evaluate and compare large numbers of interactions. […]
*1 amine or outer side, *2 acyl side, *3 side chain or, on linkers, in order; H or OH if unused. Where a SMILES comes first, the peptide text is derived from it. The star is where a group is joined. X1 = O=C(CCCC[C@@H]1SC[C@@H]2NC(=O)N[C@@H]21)NCCCOCCOCCOCCCN*; Suc = O=C(CCC(=O)[*:2])[*:1]

compound	tested-target	BI
CC[C@H](C)[C@H](NC(=O)[C@H](CCC(N)=O)NC(=O)[C@@H](NC(=O)[C@H](Cc1c[nH]cn1)NC(=O)[C@H](CCC(N)=O)NC(=O)[C@H](CC(=O)O)NC(=O)[C@H](CCC(=O)O)NC(=O)[C@H](CC(=O)O)NC(=O)CCC(=O)NCCCOCCOCCOCCCNC(=O)CCCC[C@@H]1SC[C@@H]2NC(=O)N[C@@H]21)[C@@H](C)O)C(=O)N[C@H](C(=O)N[C@@H](CCCCNC(C)=O)C(=O)N[C@H](C(=O)O)C(C)C)[C@@H](C)O	266 human PDZ domains (PDZome)	0.548
CC[C@H](C)[C@H](NC(=O)[C@H](CCC(N)=O)NC(=O)[C@@H](NC(=O)[C@H](Cc1c[nH]cn1)NC(=O)[C@H](CCC(N)=O)NC(=O)[C@H](CC(=O)O)NC(=O)[C@H](CCC(=O)O)NC(=O)[C@H](CC(=O)O)NC(=O)[C@H](Cc1ccccc1)NC(=O)[C@@H]1CCCN1C(=O)CCC(=O)NCCCOCCOCCOCCCNC(=O)CCCC[C@@H]1SC[C@@H]2NC(=O)N[C@@H]21)[C@@H](C)O)C(=O)N[C@H](C(=O)N[C@@H](CCCCN)C(=O)N[C@H](C(=O)O)C(C)C)[C@@H](C)O [PTEN_13] ({X1-Suc}-PFDEDQHTQITKV-OH)	266 human PDZ domains (PDZome)	0.224
CC[C@H](C)[C@H](NC(=O)[C@H](CCC(N)=O)NC(=O)[C@@H](NC(=O)[C@H](Cc1c[nH]cn1)NC(=O)[C@H](CCC(N)=O)NC(=O)[C@H](CC(=O)O)NC(=O)[C@H](CCC(=O)O)NC(=O)[C@H](CC(=O)O)NC(=O)CCC(=O)NCCCOCCOCCOCCCNC(=O)CCCC[C@@H]1SC[C@@H]2NC(=O)N[C@@H]21)[C@@H](C)O)C(=O)N[C@H](C(=O)N[C@@H](CCCNC(=N)N)C(=O)N[C@H](C(=O)O)C(C)C)[C@@H](C)O [PTEN_KR] ({X1-Suc}-DEDQHTQITRV-OH)	266 human PDZ domains (PDZome)	0.503
CC[C@H](C)[C@H](NC(=O)[C@H](CCC(N)=O)NC(=O)[C@@H](NC(=O)[C@H](Cc1c[nH]cn1)NC(=O)[C@H](CCC(N)=O)NC(=O)[C@H](CC(=O)O)NC(=O)[C@H](CCC(=O)O)NC(=O)[C@H](CC(=O)O)NC(=O)CCC(=O)NCCCOCCOCCOCCCNC(=O)CCCC[C@@H]1SC[C@@H]2NC(=O)N[C@@H]21)[C@@H](C)O)C(=O)N[C@H](C(=O)N[C@@H](CCCCN)C(=O)N[C@H](C(=O)O)C(C)C)[C@@H](C)O	266 human PDZ domains (PDZome)	0.156

* * *

# Tested on: 266 human PDZ domains (PDZome)
# assay-remarks: Holdup assay (chromatographic retention, PDZome-binding profile, BI)
# Parameters: key: binding intensity: 0.00 = no binding, 1.00 = maximal binding
# experimental-setup: PDZ domain PTPN13-1
*1 amine or outer side, *2 acyl side, *3 side chain or, on linkers, in order; H or OH if unused. Where a SMILES comes first, the peptide text is derived from it. The star is where a group is joined. X1 = O=C(CCCC[C@@H]1SC[C@@H]2NC(=O)N[C@@H]21)NCCCOCCOCCOCCCN*; Suc = O=C(CCC(=O)[*:2])[*:1]
measured-endpoint: BI

molecule	tested-target	measured-endpoint	recorded-result
CC[C@H](C)[C@H](NC(=O)[C@H](CCC(N)=O)NC(=O)[C@@H](NC(=O)[C@H](Cc1c[nH]cn1)NC(=O)[C@H](CCC(N)=O)NC(=O)[C@H](CC(=O)O)NC(=O)[C@H](CCC(=O)O)NC(=O)[C@H](CC(=O)O)NC(=O)[C@H](Cc1ccccc1)NC(=O)[C@@H]1CCCN1C(=O)CCC(=O)NCCCOCCOCCOCCCNC(=O)CCCC[C@@H]1SC[C@@H]2NC(=O)N[C@@H]21)[C@@H](C)O)C(=O)N[C@H](C(=O)N[C@@H](CCCCN)C(=O)N[C@H](C(=O)O)C(C)C)[C@@H](C)O [PTEN_13] ({X1-Suc}-PFDEDQHTQITKV-OH)	266 human PDZ domains (PDZome)	BI	0.009

* * *

BI by entry:
# Test system: 266 human PDZ domains (PDZome)
# assay-remarks: Holdup assay (chromatographic retention, PDZome-binding profile, BI)
# Set-up: key: binding intensity: 0.00 = no binding, 1.00 = maximal binding
# experimental-setup: PDZ domain MPP5-1
*1 amine or outer side, *2 acyl side, *3 side chain or, on linkers, in order; H or OH if unused. Where a SMILES comes first, the peptide text is derived from it. The star is where a group is joined. X1 = O=C(CCCC[C@@H]1SC[C@@H]2NC(=O)N[C@@H]21)NCCCOCCOCCOCCCN*; Suc = O=C(CCC(=O)[*:2])[*:1]
measured-endpoint: BI

compound	recorded-result
CC[C@H](C)[C@H](NC(=O)[C@H](CCC(N)=O)NC(=O)[C@@H](NC(=O)[C@H](Cc1c[nH]cn1)NC(=O)[C@H](CCC(N)=O)NC(=O)[C@H](CC(=O)O)NC(=O)[C@H](CCC(=O)O)NC(=O)[C@H](CC(=O)O)NC(=O)CCC(=O)NCCCOCCOCCOCCCNC(=O)CCCC[C@@H]1SC[C@@H]2NC(=O)N[C@@H]21)[C@@H](C)O)C(=O)N[C@H](C(=O)N[C@@H](CCCNC(=N)N)C(=O)N[C@H](C(=O)O)C(C)C)[C@@H](C)O [PTEN_KR] ({X1-Suc}-DEDQHTQITRV-OH)	-0.045
CC[C@H](C)[C@H](NC(=O)[C@H](CCC(N)=O)NC(=O)[C@@H](NC(=O)[C@H](Cc1c[nH]cn1)NC(=O)[C@H](CCC(N)=O)NC(=O)[C@H](CC(=O)O)NC(=O)[C@H](CCC(=O)O)NC(=O)[C@H](CC(=O)O)NC(=O)[C@H](Cc1ccccc1)NC(=O)[C@@H]1CCCN1C(=O)CCC(=O)NCCCOCCOCCOCCCNC(=O)CCCC[C@@H]1SC[C@@H]2NC(=O)N[C@@H]21)[C@@H](C)O)C(=O)N[C@H](C(=O)N[C@@H](CCCCN)C(=O)N[C@H](C(=O)O)C(C)C)[C@@H](C)O [PTEN_13] ({X1-Suc}-PFDEDQHTQITKV-OH)	0.002
CC[C@H](C)[C@H](NC(=O)[C@H](CCC(N)=O)NC(=O)[C@@H](NC(=O)[C@H](Cc1c[nH]cn1)NC(=O)[C@H](CCC(N)=O)NC(=O)[C@H](CC(=O)O)NC(=O)[C@H](CCC(=O)O)NC(=O)[C@H](CC(=O)O)NC(=O)CCC(=O)NCCCOCCOCCOCCCNC(=O)CCCC[C@@H]1SC[C@@H]2NC(=O)N[C@@H]21)[C@@H](C)O)C(=O)N[C@H](C(=O)N[C@@H](CCCCN)C(=O)N[C@H](C(=O)O)C(C)C)[C@@H](C)O [PTEN_11]	-0.091
CC[C@H](C)[C@H](NC(=O)[C@H](CCC(N)=O)NC(=O)[C@@H](NC(=O)[C@H](Cc1c[nH]cn1)NC(=O)[C@H](CCC(N)=O)NC(=O)[C@H](CC(=O)O)NC(=O)[C@H](CCC(=O)O)NC(=O)[C@H](CC(=O)O)NC(=O)CCC(=O)NCCCOCCOCCOCCCNC(=O)CCCC[C@@H]1SC[C@@H]2NC(=O)N[C@@H]21)[C@@H](C)O)C(=O)N[C@H](C(=O)N[C@@H](CCCCNC(C)=O)C(=O)N[C@H](C(=O)O)C(C)C)[C@@H](C)O [PTEN_Ac]	-0.048
